Target: T1, CaBdf1 BD1 (GST-tagged, wild-type) (Candida albicans (strain SC5314 / ATCC …, UniProt Q5A4W8))
T1 chain: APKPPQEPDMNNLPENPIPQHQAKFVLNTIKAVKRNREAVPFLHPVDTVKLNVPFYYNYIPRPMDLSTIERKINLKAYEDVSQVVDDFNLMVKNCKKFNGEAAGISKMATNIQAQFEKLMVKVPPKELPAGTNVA
Experiment: histone peptide array (Active Motif MODified), 1 uM GST-tagged bromodomain, anti-GST detection, normalized mean intensity
Square brackets hold non-standard residues; d marks the D form. Ends that are not written are not given here. Arg(Me2s) = CN=C(NC)NCCC[C@H](N)C(=O)O; pT = C[C@@H](OP(=O)(O)O)[C@H](N)C(=O)O; pS = N[C@@H](COP(=O)(O)O)C(=O)O; Me2a = not defined here; me2a = not defined here
// values below are reported binding score
Returns: the value as a bare number; no unit string appended.

Example binders with recorded binding score:
>  <binder>
ARTKQTARKSTGGKAPRKQ (A R T Kme2 Q T A Rme2s Kme2 S T G G K A P R K Q)

>  <binding score>
0.00218

$$$$
>  <binder>
ARTKQTARKSTGGKAPRKQ (A R T Kme2 Q T A Rme2a Kme1 S T G G K A P R K Q)

>  <binding score>
0.0363

$$$$
>  <binder>
ARTKQTARKSTGGKAPRKQ (A Rme2s T Kac Q T A Rme2s Kme3 S T G G K A P R K Q)

>  <binding score>
0.00834

$$$$
>  <binder>
PRKQLATKAARK(Ac)SAPATGG

>  <binding score>
0.0138

$$$$
>  <binder>
AR(Me2a)TK(Ac)QTAR(Me2a)K(Ac)STGGKAPRKQ (reading uncertain)

>  <binding score>
0.0413

$$$$
>  <binder>
SGRGK(Ac)QGGK(Ac)ARAK(Ac)AKSRSS

>  <binding score>
0.0591

$$$$
>  <binder>
PRKQLATKAAR(Me2s)K(Me)[pS]APATGG

>  <binding score>
0.00254

$$$$
>  <binder>
AR(me2a)TK(Me)QTARKSTGGKAPRKQ (reading uncertain)

>  <binding score>
0.0029

$$$$

Exam item: Quick one: binding score for A[Arg(Me2s)][pT]KQTARKSTGGKAPRKQ ?
Marked response: 0.00326
